tested on: LG0567-F671-PDC complex spheroids viability; test: Anticancer human tumor LG0567-F671-PDC patient-derived lung adenocarcinoma cell line growth inhibition [RAS]; details: second compound 0.000949 µM; first compound 0.00316 µM; active compounds read low;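 further: spheroids exposed to compound for seven days before readout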
measurement_type: viability, T/C (%)
Please state the figure in %; there is no need to write the unit.

Report viability, T/C for O=C(c1ccc(F)c(F)c1Nc1ccc(I)cc1F)N1CC(O)([C@@H]2CCCCN2)C1 + CCn1c(-c2cccnc2C(C)OC)c2c3cc(ccc31)N1CCOC(CC(NC(=O)C(C(C)C)N(C)C(=O)C3(F)CCN(C(=O)C#CC(C)(C)N(C)C)CC3)C(=O)N3CCCC(N3)C(=O)OCC(C)(C)C2)C1
13.4

Report viability, T/C for Nc1ccn(C2OC(CO)C(O)C2(F)F)c(=O)n1 (centres undefined) + CCn1c(-c2cc(N3CCN(C)CC3)cnc2C(C)OC)c2c3cc(ccc31)-c1csc(n1)CC(NC(=O)C1CC1C)C(=O)N1CCCC(N1)C(=O)OCC(C)(C)C2
23.8

Report viability, T/C for CC(C)n1nc(-c2ccc3oc(N)nc3c2)c2c(N)ncnc21 + CCn1c(-c2cc(N3CCN(C)CC3)cnc2C(C)OC)c2c3cc(ccc31)-c1csc(n1)CC(NC(=O)C1CC1C)C(=O)N1CCCC(N1)C(=O)OCC(C)(C)C2
18.8

Report viability, T/C for O=C(c1ccc(F)c(F)c1Nc1ccc(I)cc1F)N1CC(O)([C@@H]2CCCCN2)C1 + CCn1c(-c2cc(N3CCN(C)CC3)cnc2C(C)OC)c2c3cc(ccc31)-c1csc(n1)CC(NC(=O)C1CC1C)C(=O)N1CCCC(N1)C(=O)OCC(C)(C)C2
21.6

This collection of values is drawn from PubChem BioAssay AID2060889.
